- TGT: 5-hydroxytryptamine receptor 2B (Homo sapiens, UniProt P41595)
- Sequence (P41595 whole entry): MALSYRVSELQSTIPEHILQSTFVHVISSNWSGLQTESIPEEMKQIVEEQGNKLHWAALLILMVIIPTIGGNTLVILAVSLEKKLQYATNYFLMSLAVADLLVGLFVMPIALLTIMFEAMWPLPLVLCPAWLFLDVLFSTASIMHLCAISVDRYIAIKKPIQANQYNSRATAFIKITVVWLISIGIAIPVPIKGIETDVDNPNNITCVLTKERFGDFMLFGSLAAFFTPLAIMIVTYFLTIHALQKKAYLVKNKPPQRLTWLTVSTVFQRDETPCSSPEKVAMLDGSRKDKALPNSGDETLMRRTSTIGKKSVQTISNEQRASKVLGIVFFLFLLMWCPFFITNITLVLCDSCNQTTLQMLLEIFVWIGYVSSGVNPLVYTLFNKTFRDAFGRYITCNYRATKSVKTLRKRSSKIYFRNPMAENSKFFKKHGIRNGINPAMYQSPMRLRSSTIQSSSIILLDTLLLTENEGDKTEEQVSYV
- EXPERIMENT SUMMARY: Activity at 5HT2B receptor
pEC50: −log10 of the molar value.
RESULT TYPE: pEC50

Fill in reported pEC50 for this entry: `CCOC(=O)N(Cc1ccccc1-c1ccccc1)[C@H]1CCNC1` < 5.00

* * *

- EXPERIMENT SUMMARY: Apparent permeability from apical to basolateral side of the MDCK cells expressing MDR1 gene
- Type: ADME, cell-based, Canis lupus familiaris
- TEST CONTEXT: dog
Use 10 ×10⁻⁶ cm/s as the dividing line for Papp A→B, with the line itself on the 1 (yes) side and lower values as 0 (no).

Example results:
CN(C)S(=O)(=O)N(Cc1ccccc1-c1ccccc1)[C@H]1CCNC1 = 1 (yes)
CCOC(=O)N(Cc1ccccc1-c1ccccc1)[C@H]1CCNC1 = 1 (yes)
CC(C)C(=O)N(Cc1ccccc1-c1ccccc1)[C@H]1CCNC1 = 1 (yes)

# bool: Papp A→B of `O=C(N1CCCC1)N(Cc1ccccc1-c1ccccc1)[C@H]1CCNC1` >= 10 ×10⁻⁶ cm/s 0 (no)
